As shown below, each of these compounds has a reported concentration at 24 h value.
Test Details: Human pharmacokinetic study, Example 5 Arm II (multiple dose, crossover)
Assay type: in vivo
Protocol Conditions: both sexes, human, blood, oral; Example 5 Arm II, multiple dose 14 days, non-fasting; Regimen B (reference regimen): two Triple Tablets + one Single Tablet morning, one Single Tablet evening; N = 63; read-out: C24, geometric mean
// units = ng/mL; emit number, no label

Some solved cases for reference:
Compound: Cc1cnc(C(=O)N[C@H]2CCCCC/C=C\[C@@H]3C[C@@]3(C(=O)NS(=O)(=O)C3CC3)NC(=O)[C@@H]3C[C@@H](Oc4nc5ccccc5c5ccccc45)CN3C2=O)cn1 [Compound 1]
concentration at 24 h (ng/mL): 30.4

Compound: COc1c(-c2ccc3cc(NS(C)(=O)=O)ccc3c2)cc(-n2ccc(=O)[nH]c2=O)cc1C(C)(C)C [Compound 4]
concentration at 24 h (ng/mL): 162

Let us move to another entry and its concentration at 24 h.
# input compound: CC(C)c1nc(CN(C)C(=O)N[C@H](C(=O)N[C@@H](Cc2ccccc2)C[C@H](O)[C@H](Cc2ccccc2)NC(=O)OCc2cncs2)C(C)C)cs1 [Compound 3, reference compound] ; wanted: its concentration at 24 h
35.1

----------
Test Details: Human pharmacokinetic study, Example 5 Arm I (single dose, replicated crossover)
Assay type: in vivo
Protocol Conditions: both sexes, human, blood, oral, single dose, non-fasting, Regimen B (reference regimen): two Triple Tablets + one Single Tablet morning, one Single Tablet evening, N = 171, read-out: Tmax, first value (geometric mean)
Procedure: A Phase 1, non-fasting, open-label, two-arm, four-period, randomized, crossover study was conducted to compare and characterize the pharmacokinetics of (i) Triple Tablet when co-administered with Single Tablet, and (ii) Formulation C5-12 as discussed below. Part 1 was a single dose, two-treatment, randomized, four period, two sequence replicated crossover study with 88 subjects. Doses in the four periods were separated by at least 10 days. […]
Measured Attribute: Tmax (h)
Form entry: value (h) — number only.

Compound: COC(=O)N[C@H](C(=O)N1CCC[C@H]1C(=O)Nc1ccc([C@@H]2CC[C@@H](c3ccc(NC(=O)[C@@H]4CCCN4C(=O)[C@@H](NC(=O)OC)C(C)C)cc3)N2c2ccc(C(C)(C)C)cc2)cc1)C(C)C
Tmax, h: 5

Let us examine a further case.
Can you share its Tmax? I mean this compound: COc1c(-c2ccc3cc(NS(C)(=O)=O)ccc3c2)cc(-n2ccc(=O)[nH]c2=O)cc1C(C)(C)C
4

----------
Listed here: items and their measured AUC.
Test Details: Human pharmacokinetic study, Example 4 Arm III (14-day multiple dose, steady state)
Type: in vivo
Protocol Conditions: human, in vivo, oral, 3 Formulation C5-12 tablets daily, three Formulation C5-12 tablets daily for 14 days, non-fasting, Day 1, N = 14, read-out: AUC24, geometric mean
Please reply with the bare figure in ng·h/mL and do not write the unit itself.

Compound: Cc1cnc(C(=O)N[C@H]2CCCCC/C=C\[C@@H]3C[C@@]3(C(=O)NS(=O)(=O)C3CC3)NC(=O)[C@@H]3C[C@@H](Oc4nc5ccccc5c5ccccc45)CN3C2=O)cn1
Measured Attribute: AUC
Unit Info: ng·h/mL
Quantitative Readout: 4640

Would you kindly look at the next entry?
GET /values?readout=AUC&item= COc1c(-c2ccc3cc(NS(C)(=O)=O)ccc3c2)cc(-n2ccc(=O)[nH]c2=O)cc1C(C)(C)C
13600

----------
Test Details: Human pharmacokinetic study, Example 4 Arm II (single dose, crossover)
Type: in vivo
Protocol Conditions: both sexes, human, blood, oral, 3 Formulation C5-12 tablets, Example 4 Arm II, single dose, non-fasting; Regimen E (C5-12): three Formulation C5-12 tablets in the morning; N = 13; read-out: AUCt, geometric mean
Each entry below carries its recorded AUC(0-t).
Please reply with the bare figure in ng·h/mL and do not write the unit itself.

Compound: Cc1cnc(C(=O)N[C@H]2CCCCC/C=C\[C@@H]3C[C@@]3(C(=O)NS(=O)(=O)C3CC3)NC(=O)[C@@H]3C[C@@H](Oc4nc5ccccc5c5ccccc45)CN3C2=O)cn1
Quantitative Readout: 4310

Continue with the next compound.
AUC(0-t) for COc1c(-c2ccc3cc(NS(C)(=O)=O)ccc3c2)cc(-n2ccc(=O)[nH]c2=O)cc1C(C)(C)C ?
18400

----------
Test Details: Human pharmacokinetic study, Example 5 Arm I (single dose, replicated crossover)
Type: in vivo
Protocol Conditions: both sexes, human, in vivo, oral, single dose, non-fasting, Regimen B (reference regimen): two Triple Tablets + one Single Tablet morning, one Single Tablet evening, N = 171
Experimental: A Phase 1, non-fasting, open-label, two-arm, four-period, randomized, crossover study was conducted to compare and characterize the pharmacokinetics of (i) Triple Tablet when co-administered with Single Tablet, and (ii) Formulation C5-12 as discussed below. Part 1 was a single dose, two-treatment, randomized, four period, two sequence replicated crossover study with 88 subjects. Doses in the four periods were separated by at least 10 days. […]
Measured Attribute: half-life (h)
# number only, unit h dropped from output

// lookup half-life for Cc1cnc(C(=O)N[C@H]2CCCCC/C=C\[C@@H]3C[C@@]3(C(=O)NS(=O)(=O)C3CC3)NC(=O)[C@@H]3C[C@@H](Oc4nc5ccccc5c5ccccc45)CN3C2=O)cn1
6.02

----------
Test Details: Human pharmacokinetic study, Example 4 Arm III (14-day multiple dose, steady state)
Assay type: in vivo
Protocol Conditions: human, in vivo, oral, 3 Formulation C5-12 tablets daily, three Formulation C5-12 tablets daily for 14 days, non-fasting, Day 1, N = 14, read-out: Cmax, geometric mean
Cmax values, listed per item
Number only, in ng/mL; omit the unit.

Compound: COc1c(-c2ccc3cc(NS(C)(=O)=O)ccc3c2)cc(-n2ccc(=O)[nH]c2=O)cc1C(C)(C)C [Compound 4]
Quantitative Readout: 1320

Note: attention shifts to another entry.
Quick one: Cmax of Cc1cnc(C(=O)N[C@H]2CCCCC/C=C\[C@@H]3C[C@@]3(C(=O)NS(=O)(=O)C3CC3)NC(=O)[C@@H]3C[C@@H](Oc4nc5ccccc5c5ccccc45)CN3C2=O)cn1 [Compound 1] ?
651

----------
Test Details: Human pharmacokinetic study, Example 5 Arm I (single dose, replicated crossover)
Type: in vivo
Protocol Conditions: both sexes, human, in vivo, oral, single dose, non-fasting, Regimen B (reference regimen): two Triple Tablets + one Single Tablet morning, one Single Tablet evening, N = 171, read-out: Tmax, first value (geometric mean)
Measured Attribute: Tmax

Which Tmax reading was recorded for the molecule Cc1cnc(C(=O)N[C@H]2CCCCC/C=C\[C@@H]3C[C@@]3(C(=O)NS(=O)(=O)C3CC3)NC(=O)[C@@H]3C[C@@H](Oc4nc5ccccc5c5ccccc45)CN3C2=O)cn1 [Compound 1] ?
5 h

----------
AUC values, listed per item
Test Details: Human pharmacokinetic study, Example 5 Arm II (multiple dose, crossover)
Assay type: in vivo
Protocol Conditions: both sexes, human, blood, oral; Example 5 Arm II, multiple dose 14 days, non-fasting; Regimen B (reference regimen): two Triple Tablets + one Single Tablet morning, one Single Tablet evening; N = 63; read-out: AUC24, geometric mean
// return the numeric value with its unit appended

Solved entries:
Compound: CC(C)c1nc(CN(C)C(=O)N[C@H](C(=O)N[C@@H](Cc2ccccc2)C[C@H](O)[C@H](Cc2ccccc2)NC(=O)OCc2cncs2)C(C)C)cs1 [Compound 3, reference compound]
Result: 9580 ng·h/mL
--
Compound: COc1c(-c2ccc3cc(NS(C)(=O)=O)ccc3c2)cc(-n2ccc(=O)[nH]c2=O)cc1C(C)(C)C
Result: 9770 ng·h/mL

Endpoint output: AUC of Cc1cnc(C(=O)N[C@H]2CCCCC/C=C\[C@@H]3C[C@@]3(C(=O)NS(=O)(=O)C3CC3)NC(=O)[C@@H]3C[C@@H](Oc4nc5ccccc5c5ccccc45)CN3C2=O)cn1 . Value?
9240 ng·h/mL

----------
Test Details: Human pharmacokinetic study, Example 5 Arm II (multiple dose, crossover)
Type: in vivo
Protocol Conditions: both sexes, human, blood, oral; Example 5 Arm II, multiple dose 14 days, non-fasting; Regimen B (reference regimen): two Triple Tablets + one Single Tablet morning, one Single Tablet evening; N = 63
Reported half-life is given for each of the following molecules.
Supply the numeric figure in h, leaving out any unit text.

Compound: Cc1cnc(C(=O)N[C@H]2CCCCC/C=C\[C@@H]3C[C@@]3(C(=O)NS(=O)(=O)C3CC3)NC(=O)[C@@H]3C[C@@H](Oc4nc5ccccc5c5ccccc45)CN3C2=O)cn1
Quantitative Readout: 5.3

Fill in the blank: the reported half-life of COc1c(-c2ccc3cc(NS(C)(=O)=O)ccc3c2)cc(-n2ccc(=O)[nH]c2=O)cc1C(C)(C)C is ____.
5.5

----------
Property: Tmax; scope: individual compounds
Test Details: Human pharmacokinetic study, Example 4 Arm III (14-day multiple dose, steady state)
Type: in vivo
Protocol Conditions: human, in vivo, oral, 3 Formulation C5-12 tablets daily, three Formulation C5-12 tablets daily for 14 days, non-fasting, Day 14, N = 14

Compound: COc1c(-c2ccc3cc(NS(C)(=O)=O)ccc3c2)cc(-n2ccc(=O)[nH]c2=O)cc1C(C)(C)C [Compound 4]
Tmax: 9.4 h
//
Compound: COC(=O)N[C@H](C(=O)N1CCC[C@H]1C(=O)Nc1ccc([C@@H]2CC[C@@H](c3ccc(NC(=O)[C@@H]4CCCN4C(=O)[C@@H](NC(=O)OC)C(C)C)cc3)N2c2ccc(C(C)(C)C)cc2)cc1)C(C)C [Compound 2]
Tmax: 5.6 h
//
Compound: Cc1cnc(C(=O)N[C@H]2CCCCC/C=C\[C@@H]3C[C@@]3(C(=O)NS(=O)(=O)C3CC3)NC(=O)[C@@H]3C[C@@H](Oc4nc5ccccc5c5ccccc45)CN3C2=O)cn1 [Compound 1]
Tmax: 5.1 h

// next item, Tmax requested
// Tmax lookup, key: CC(C)c1nc(CN(C)C(=O)N[C@H](C(=O)N[C@@H](Cc2ccccc2)C[C@H](O)[C@H](Cc2ccccc2)NC(=O)OCc2cncs2)C(C)C)cs1 [Compound 3, reference compound]
4.7 h
